measurement target: IGF-1R (Homo sapiens)
Construct: purchased Upstate Co. 14-465
Sequence (P08069 959-1367 limits assumed): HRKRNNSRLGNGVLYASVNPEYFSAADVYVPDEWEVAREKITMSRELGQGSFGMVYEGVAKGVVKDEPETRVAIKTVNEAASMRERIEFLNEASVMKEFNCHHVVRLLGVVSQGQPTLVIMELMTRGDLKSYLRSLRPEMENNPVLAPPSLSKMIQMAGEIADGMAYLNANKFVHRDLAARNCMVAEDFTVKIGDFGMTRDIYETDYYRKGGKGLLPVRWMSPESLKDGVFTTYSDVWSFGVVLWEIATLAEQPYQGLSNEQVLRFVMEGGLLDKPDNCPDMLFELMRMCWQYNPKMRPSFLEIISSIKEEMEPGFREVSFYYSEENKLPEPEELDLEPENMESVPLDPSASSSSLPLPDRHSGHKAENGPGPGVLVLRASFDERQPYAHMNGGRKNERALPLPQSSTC
run description: IGF-1R inhibitory activity (kinase reaction, time-resolved fluoroimmunoassay)
Assay type: biochemical
cond: IGF-1R active recombinant enzyme, test compound 10 μmol/L
value kind: inhibition at 10 µM (%)
I only need the number, in %, no unit after it.

Request the reported inhibition at 10 µM associated with Cc1ccsc1C(=O)Nc1cc(CN2CCN(C)C(=O)C2)ccc1/C=C/c1n[nH]c2ccccc12
105

Reported inhibition at 10 µM, compound Cc1cc(C(=O)Nc2ccccc2/C=C/c2n[nH]c3ccccc23)ccc1N : ____
99.5

Look at this compound and give its reported inhibition at 10 µM. O=C(Nc1ccccc1/C=C/c1n[nH]c2ccccc12)c1cscn1
98.6

Recorded inhibition at 10 µM for Cc1cc([N+](=O)[O-])sc1C(=O)Nc1ccccc1/C=C/c1n[nH]c2ccccc12 , please?
93.6

Endpoint output: inhibition at 10 µM of C(=C\c1n[nH]c2ccccc12)/c1ccccc1-n1cccc1 . Value?
102

###

Please provide measured inhibition at 1 µM for the entries that follow.
Tested on: NCI-H929
run description: Cytostatic activity on human multiple myeloma cell line NCI-H929 (WST-1)
Assay type: cell-based
cond: Homo sapiens, NCI-H929, 72 h, NCI-H929 cells, test compound 1 μmol/L, WST-1; read-out: cytostatic rate (%) H929 (1 μmol/L)
Experimental: The cytostatic rates of a test compound on human multiple myeloma cell lines NCI-H929 and KMS-11, were determined in the following manner. […]

# lookup: inhibition at 1 µM of Nc1cccc2c1C(=O)N(c1cc(CN3CCN(CCCO)CC3)ccc1/C=C/c1n[nH]c3ccccc13)C2=O
116%

Recorded inhibition at 1 µM of Cc1ccsc1C(=O)Nc1cc(CN2CCNC[C@@H]2C)ccc1/C=C/c1n[nH]c2ccccc12 , please.
131%

Bench note: what inhibition at 1 µM did Cc1ccsc1C(=O)Nc1cc(CN2CCN(C)C(=O)C2)ccc1/C=C/c1n[nH]c2ccccc12 show?
132%

# inhibition at 1 µM lookup, item COc1c(OCCN2C(=O)CNC2=O)ccc(/C=C/c2n[nH]c3ccccc23)c1NC(=O)c1sccc1C
111%

Need inhibition at 1 µM, item Cc1ccsc1C(=O)Nc1cc(CN2CC[C@@H](O)C2)ccc1/C=C/c1n[nH]c2ccccc12
131%

Entry CN(C)C(=O)c1ccc(/C=C/c2n[nH]c3ccccc23)c(N2C(=O)c3cccc(N)c3C2=O)c1 : reported inhibition at 1 µM = ?
118%

Find the recorded inhibition at 1 µM belonging to CN1CCN(C(=O)c2ccc(/C=C/c3n[nH]c4ccccc34)c(N3C(=O)c4cccc(N)c4C3=O)c2)CC1 and report it.
113%

What does the data say about its inhibition at 1 µM? Entry: CCCS(=O)(=O)NCCOc1ccc(/C=C/c2n[nH]c3ccccc23)c(NC(=O)c2sccc2C)c1OC
120%

Any idea what its inhibition at 1 µM is? The compound is Cc1ccsc1C(=O)Nc1cc(C(=O)N(C)CCO)ccc1/C=C/c1n[nH]c2ccccc12
116%

Bench note: what inhibition at 1 µM did Nc1cccc2c1C(=O)N(c1cc(C(=O)N3CCC(N4CCOCC4)CC3)ccc1/C=C/c1n[nH]c3ccccc13)C2=O show?
114%

GET /values?readout=inhibition at 1 µM&item= Cc1ccsc1C(=O)Nc1cc(C(=O)N(C)C2CCN(C)CC2)ccc1/C=C/c1n[nH]c2ccccc12
116%

What value of measured inhibition at 1 µM is listed for CN(CCO)c1ccc(/C=C/c2n[nH]c3ccccc23)c(NC(=O)c2cccn2C)c1 ?
118%

Bench note: what inhibition at 1 µM did COc1c(OCCN2CCCC2=O)ccc(/C=C/c2n[nH]c3ccccc23)c1NC(=O)c1sccc1C show?
120%

Quick check: inhibition at 1 µM of COc1c(OCCCN2CCC[C@H]2CO)ccc(/C=C/c2n[nH]c3ccccc23)c1NC(=O)c1sccc1C ?
121%

Data request, read-out inhibition at 1 µM, for COCCCN1CCN(Cc2ccc(/C=C/c3n[nH]c4ccccc34)c(N3Cc4c(N)cccc4C3=O)c2)CC1
122%

Entry Cc1ccsc1C(=O)Nc1cc(CN2CCN(CCOCCO)CC2)ccc1/C=C/c1n[nH]c2ccccc12 : reported inhibition at 1 µM = ?
122%

GET /values?readout=inhibition at 1 µM&item= COc1c(OCC(=O)N2CCOCC2)ccc(/C=C/c2n[nH]c3ccccc23)c1NC(=O)c1sccc1C
117%

Could you share which inhibition at 1 µM value was measured for COC1CCN(C(=O)c2ccc(/C=C/c3n[nH]c4ccccc34)c(N3Cc4c(N)cccc4C3=O)c2)CC1 ?
105%

Would you mind telling me what inhibition at 1 µM value was observed for CCN(CCO)CCCOc1ccc(/C=C/c2n[nH]c3ccccc23)c(NC(=O)c2sccc2C)c1OC ?
119%

# query: inhibition at 1 µM of entry Nc1cccc2c1C(=O)N(c1cc(CN3CCN(CCO)CC3)ccc1/C=C/c1n[nH]c3ccccc13)C2=O
114%

Consider the compound Cc1ccsc1C(=O)Nc1cc(CN2CCN(CC(C)(C)O)CC2)ccc1/C=C/c1n[nH]c2ccccc12 and give its measured inhibition at 1 µM.
115%
